- Subject Of Test: RNA-binding protein pos-1 (Caenorhabditis elegans)
- Sequence (G5EF15 whole entry, the tested form may be a part): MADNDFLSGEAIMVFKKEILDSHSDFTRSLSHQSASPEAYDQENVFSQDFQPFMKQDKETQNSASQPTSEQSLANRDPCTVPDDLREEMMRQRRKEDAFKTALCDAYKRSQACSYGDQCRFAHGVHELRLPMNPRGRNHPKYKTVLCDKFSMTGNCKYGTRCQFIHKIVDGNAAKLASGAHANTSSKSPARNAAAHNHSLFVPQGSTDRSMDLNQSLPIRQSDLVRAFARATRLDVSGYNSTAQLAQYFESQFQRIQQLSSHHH
- Assay Remarks: disruptors of C. elegans POS-1 RNA interaction – biochemical, fluorescence polarization, dose response (AID 1964);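 note: purified POS-1 fused to maltose binding protein made in E. coli; potency of compounds blocking POS-1 binding to fluorescent RNA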
Active and inactive are the calls of the source.

| Molecule | EC50 |
| --- | --- |
| COc1cc(/C=N\Nc2ccc([N+](=O)[O-])cc2)ccc1OCC(=O)Nc1ccc(C)c(C)c1 | > 300 µM (not active) |
| COc1ccccc1C(=O)C1CCCN(C(=O)c2cccnc2SC)C1 (configuration not stated) | > 300 µM (not active) |
| Cc1ccc(C)n1-c1ccc2c(c1)COC2=O | > 300 µM (not active) |
| COc1ccc(OC)c(C(=O)c2coc3ccc(O)c(CN4CCOCC4)c23)c1 | > 300 µM (not active) |
| COc1cccc(/C=N/NC(=O)c2ccc(O)nn2)c1O | 31.7 µM (active) |
| CCCCCCN1C(=O)NC(=O)/C(=C\NCCCn2ccnc2)C1=O | > 300 µM (not active) |
| CCCCC1=CC2=CC(=O)C(C)(OC(=O)c3ccc(Cl)nc3)C(=O)C2=CO1 (configuration not stated) | 21.7 µM (active) |
| Cc1ccccc1N1C(=O)/C(=C/NNC(=O)c2ccccc2O)C(=O)NC1=S | 21.2 µM (active) |
| CN1C(=O)C(=Cc2ccc(Sc3ccccc3)o2)C(=O)N(C)C1=S | > 300 µM (not active) |
| COc1ccc(P2(=O)Nc3ccccc3N2)cc1 | > 300 µM (not active) |
| Cn1c(=O)c(-c2cc(O)[nH]n2)c(O)c2ccccc21 | > 300 µM (not active) |
| Cc1c(C(=O)O)cccc1-n1c(C)cc(/C=N/Nc2ccc([N+](=O)[O-])cn2)c1C | > 300 µM (not active) |

###

A collection of compounds and their measured EC50
- Subject Of Test: Zinc finger protein mex-5 (Caenorhabditis elegans, UniProt Q9XUB2)
- Sequence (Q9XUB2 whole entry): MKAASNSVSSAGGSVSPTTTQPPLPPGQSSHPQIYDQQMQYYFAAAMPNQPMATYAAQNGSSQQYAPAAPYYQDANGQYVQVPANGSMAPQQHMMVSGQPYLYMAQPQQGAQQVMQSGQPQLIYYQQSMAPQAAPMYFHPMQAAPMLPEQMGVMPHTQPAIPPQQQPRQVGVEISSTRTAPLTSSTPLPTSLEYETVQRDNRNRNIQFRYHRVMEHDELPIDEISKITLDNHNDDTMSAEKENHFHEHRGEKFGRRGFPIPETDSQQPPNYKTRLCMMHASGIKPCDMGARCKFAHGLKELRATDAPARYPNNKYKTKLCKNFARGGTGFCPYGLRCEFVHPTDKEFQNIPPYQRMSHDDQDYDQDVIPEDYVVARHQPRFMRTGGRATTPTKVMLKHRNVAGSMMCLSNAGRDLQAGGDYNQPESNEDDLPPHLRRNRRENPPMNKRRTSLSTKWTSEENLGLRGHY
- Assay Remarks: potency of MEX-5 RNA-binding blockers – biochemical, C. elegans, fluorescence polarization, dose response (AID 1960)
Active and inactive are the calls of the source.

| Compound | EC50 |
| --- | --- |
| COc1cc(/C=N\Nc2ccc([N+](=O)[O-])cc2)ccc1OCC(=O)Nc1ccc(C)c(C)c1 | 234 µM (inconclusive) |
| Cc1ccccc1N1C(=O)/C(=C/NNC(=O)c2ccccc2O)C(=O)NC1=S | 23.5 µM (active) |
| CCCCCCN1C(=O)NC(=O)/C(=C\NCCCn2ccnc2)C1=O | > 300 µM (inconclusive) |
| CN1C(=O)C(=Cc2ccc(Sc3ccccc3)o2)C(=O)N(C)C1=S | > 300 µM (not active) |
| COc1ccc(P2(=O)Nc3ccccc3N2)cc1 | 103 µM (active) |
| Cc1ccc(C)n1-c1ccc2c(c1)COC2=O | > 300 µM (not active) |
| COc1ccc(OC)c(C(=O)c2coc3ccc(O)c(CN4CCOCC4)c23)c1 | > 300 µM (not active) |
| COc1ccccc1C(=O)C1CCCN(C(=O)c2cccnc2SC)C1 (stereo unspecified) | > 300 µM (not active) |
| Cc1c(C(=O)O)cccc1-n1c(C)cc(/C=N/Nc2ccc([N+](=O)[O-])cn2)c1C | 50.2 µM (active) |
| CCCCC1=CC2=CC(=O)C(C)(OC(=O)c3ccc(Cl)nc3)C(=O)C2=CO1 (stereo unspecified) | 21.6 µM (active) |
| Cn1c(=O)c(-c2cc(O)[nH]n2)c(O)c2ccccc21 | 23.3 µM (active) |

###

- Subject Of Test: Microphthalmia-associated transcription factor (Homo sapiens, UniProt O75030)
- Sequence (O75030 whole entry): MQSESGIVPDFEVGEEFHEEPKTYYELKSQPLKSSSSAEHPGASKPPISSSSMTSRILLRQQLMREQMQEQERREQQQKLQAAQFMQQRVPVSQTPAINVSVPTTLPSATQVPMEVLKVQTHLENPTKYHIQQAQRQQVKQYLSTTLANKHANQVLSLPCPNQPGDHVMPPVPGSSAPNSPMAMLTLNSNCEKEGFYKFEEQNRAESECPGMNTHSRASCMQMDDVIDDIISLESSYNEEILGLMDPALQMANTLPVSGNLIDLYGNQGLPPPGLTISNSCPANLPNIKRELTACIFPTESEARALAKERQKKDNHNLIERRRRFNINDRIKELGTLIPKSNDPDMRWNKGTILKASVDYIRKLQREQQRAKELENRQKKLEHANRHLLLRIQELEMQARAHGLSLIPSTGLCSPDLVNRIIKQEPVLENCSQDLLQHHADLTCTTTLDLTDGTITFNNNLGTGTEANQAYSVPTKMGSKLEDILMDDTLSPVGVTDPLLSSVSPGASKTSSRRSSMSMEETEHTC
- Assay Remarks: reducers of TRPM1 reporter luminescence, concentration series – cell-based, SK-MEL-5, cherry-picked, set 3, MITF inhibitor project, dose response (AID 493073);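 note: SK-MEL-5 melanoma cells with luciferase driven by the MITF target TRPM1 promoter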
- Type: functional
Calls of active or inactive are those of the source.

| Line Notation | AC50 |
| --- | --- |
| O=C(N/N=C/c1ccc(O)c2ncccc12)c1cccc(Br)c1 | 7.28 µM (active) |
| COc1cc(OC)cc(-c2oc(=O)c3cc(OC)c(OC)cc3c2C(F)(F)F)c1 | 12.8 µM (active) |
| O=C(Nc1ccc2c(c1)OCCO2)c1coc2ccccc2c1=O | 46 µM (active) |
| CCN(CC)S(=O)(=O)c1cccc(C(=O)N/N=C/c2ccc([N+](=O)[O-])o2)c1 | 14.1 µM (active) |
| Cc1cc(N2CCOCC2)ccc1/C=C\[N+](=O)[O-] | 22.5 µM (active) |

###

- Subject Of Test: DNA repair and recombination protein RAD54-like (Homo sapiens, UniProt Q92698)
- Sequence (Q92698 whole entry): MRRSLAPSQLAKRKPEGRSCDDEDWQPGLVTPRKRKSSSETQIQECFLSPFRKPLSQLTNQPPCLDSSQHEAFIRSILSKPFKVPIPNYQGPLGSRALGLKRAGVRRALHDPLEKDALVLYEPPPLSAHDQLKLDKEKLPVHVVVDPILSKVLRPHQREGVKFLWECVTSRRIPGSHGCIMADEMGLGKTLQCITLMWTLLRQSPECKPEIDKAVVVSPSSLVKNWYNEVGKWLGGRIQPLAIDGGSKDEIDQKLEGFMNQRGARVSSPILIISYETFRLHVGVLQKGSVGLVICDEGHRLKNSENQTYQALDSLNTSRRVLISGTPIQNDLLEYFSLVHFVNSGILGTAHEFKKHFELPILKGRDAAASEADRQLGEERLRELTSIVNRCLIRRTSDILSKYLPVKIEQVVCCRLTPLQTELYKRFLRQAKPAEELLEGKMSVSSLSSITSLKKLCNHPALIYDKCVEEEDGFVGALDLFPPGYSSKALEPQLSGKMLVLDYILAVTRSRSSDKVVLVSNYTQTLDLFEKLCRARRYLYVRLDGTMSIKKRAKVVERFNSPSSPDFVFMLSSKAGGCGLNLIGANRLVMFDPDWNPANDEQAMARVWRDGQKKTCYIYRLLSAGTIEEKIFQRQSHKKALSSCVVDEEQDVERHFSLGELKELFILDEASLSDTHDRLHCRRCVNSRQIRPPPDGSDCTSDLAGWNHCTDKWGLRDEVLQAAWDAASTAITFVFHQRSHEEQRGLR
- Assay Remarks: RAD54 Holliday junction migration blockers – biochemical, fluorescence, cherry-picked samples, dose series, confirmation (AID 651657)
- Type: functional
Activity calls are given as the source filed them.
A collection of compounds and their measured AC50
Readout Label: AC50

| Line Notation | Assay Value |
| --- | --- |
| COc1cc(C)c2sc3ccccc3c(=O)c2c1NCCN(C)C | 2.7 µM (active) |
| CCN(CC)CCNC(=O)c1cc2c(=O)n(C)c3ccccc3c2n1C | 18.3 µM (active) |
| NC(=O)CN1CCN(CCN2C(=O)c3cccc4cccc(c34)C2=O)CC1 | 13.3 µM (active) |
| CCCCN(CC)CCCNC(=O)c1cc2c(-c3ccc(OC)c(OC)c3)nn(C)c2s1 | 9.31 µM (active) |
| Cc1cc(C)c2nc(C)cc(Nc3ccc(C(=O)NCCO)cc3)c2c1 | 32.6 µM (active) |

###

- Subject Of Test: Ubiquitin-conjugating enzyme E2 N (Homo sapiens, UniProt P61088)
- Sequence (P61088 whole entry): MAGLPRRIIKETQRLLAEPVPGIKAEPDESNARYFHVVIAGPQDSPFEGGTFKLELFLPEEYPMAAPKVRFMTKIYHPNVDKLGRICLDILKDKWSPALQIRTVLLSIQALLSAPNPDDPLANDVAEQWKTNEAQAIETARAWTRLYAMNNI
- Type: functional
The source made the active and inactive calls.
A collection of molecules and their measured IC50

| Molecule | Subject Of Test | IC50 |
| --- | --- | --- |
| CCC(C(=O)NC1CCCC1)N(C(=O)c1snc(C(N)=O)c1N)c1ccc(OC)cc1 (stereo not given) | Ubiquitin-conjugating enzyme E2 N (Homo sapiens, UniProt P61088) | > 20 µM (inactive) |
| Cn1cncc1C#Cc1c(-c2ccc(S(C)(=O)=O)cc2)sc2ccccc12 | Ubiquitin-conjugating enzyme E2 N (Homo sapiens, UniProt P61088) | 8.84 µM (active) |
| CCN(CC)CCOC(=O)c1ccc(N/C=C(/C#N)c2nc(-c3cc4ccccc4oc3=O)cs2)cc1 | Ubiquitin-conjugating enzyme E2 N (Homo sapiens, UniProt P61088) | 3.74 µM (active) |
| CC1(C)Cc2c(sc(NC(=O)C(=O)N3CCCC3)c2C(N)=O)CO1 | Ubiquitin-conjugating enzyme E2 N (Homo sapiens, UniProt P61088) | 9.62 µM (active) |
| COc1ccc(C[C@@H]2CN3C(=NC[C@@H]3Cc3ccc(O)cc3)N2C[C@H](C)NC(=O)CCC2CCCCC2)cc1 | Ubiquitin-conjugating enzyme E2 N (Homo sapiens, UniProt P61088) | > 20 µM (inactive) |

###

- Subject Of Test: Caspase-3 (Homo sapiens)
- Sequence (P42574 29-175 limits assumed): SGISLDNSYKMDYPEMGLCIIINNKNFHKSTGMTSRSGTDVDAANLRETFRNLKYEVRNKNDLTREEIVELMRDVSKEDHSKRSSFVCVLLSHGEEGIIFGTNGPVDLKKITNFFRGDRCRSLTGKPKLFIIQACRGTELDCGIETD
- Sequence (P42574 176-277 limits assumed): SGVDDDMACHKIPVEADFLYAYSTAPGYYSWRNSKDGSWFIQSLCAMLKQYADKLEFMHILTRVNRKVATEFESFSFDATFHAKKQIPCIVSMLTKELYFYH
- Assay type: functional
Active and inactive are the calls of the source.
A collection of compounds and their measured IC50

| Line Notation | IC50 |
| --- | --- |
| Cc1ccc(C(=O)COC(=O)c2cccc(NC(=O)c3ccc([N+](=O)[O-])cc3[N+](=O)[O-])c2)cc1 | 22.2 µM (active) |
| CCOC(=O)c1ccccc1N/C=C/C(=O)c1ccccc1 | 33.1 µM (active) |
| O=C(O)c1cccc(-c2nnn(Cc3ccccc3Cl)n2)c1 | 15.6 µM (active) |
| Cc1c(Cl)cnc(NC(=O)COC(=O)c2ccc([N+](=O)[O-])s2)c1Cl | 11.1 µM (active) |

###

- Subject Of Test: Apoptotic protease-activating factor 1 (Homo sapiens, UniProt O14727)
- Sequence (O14727 whole entry): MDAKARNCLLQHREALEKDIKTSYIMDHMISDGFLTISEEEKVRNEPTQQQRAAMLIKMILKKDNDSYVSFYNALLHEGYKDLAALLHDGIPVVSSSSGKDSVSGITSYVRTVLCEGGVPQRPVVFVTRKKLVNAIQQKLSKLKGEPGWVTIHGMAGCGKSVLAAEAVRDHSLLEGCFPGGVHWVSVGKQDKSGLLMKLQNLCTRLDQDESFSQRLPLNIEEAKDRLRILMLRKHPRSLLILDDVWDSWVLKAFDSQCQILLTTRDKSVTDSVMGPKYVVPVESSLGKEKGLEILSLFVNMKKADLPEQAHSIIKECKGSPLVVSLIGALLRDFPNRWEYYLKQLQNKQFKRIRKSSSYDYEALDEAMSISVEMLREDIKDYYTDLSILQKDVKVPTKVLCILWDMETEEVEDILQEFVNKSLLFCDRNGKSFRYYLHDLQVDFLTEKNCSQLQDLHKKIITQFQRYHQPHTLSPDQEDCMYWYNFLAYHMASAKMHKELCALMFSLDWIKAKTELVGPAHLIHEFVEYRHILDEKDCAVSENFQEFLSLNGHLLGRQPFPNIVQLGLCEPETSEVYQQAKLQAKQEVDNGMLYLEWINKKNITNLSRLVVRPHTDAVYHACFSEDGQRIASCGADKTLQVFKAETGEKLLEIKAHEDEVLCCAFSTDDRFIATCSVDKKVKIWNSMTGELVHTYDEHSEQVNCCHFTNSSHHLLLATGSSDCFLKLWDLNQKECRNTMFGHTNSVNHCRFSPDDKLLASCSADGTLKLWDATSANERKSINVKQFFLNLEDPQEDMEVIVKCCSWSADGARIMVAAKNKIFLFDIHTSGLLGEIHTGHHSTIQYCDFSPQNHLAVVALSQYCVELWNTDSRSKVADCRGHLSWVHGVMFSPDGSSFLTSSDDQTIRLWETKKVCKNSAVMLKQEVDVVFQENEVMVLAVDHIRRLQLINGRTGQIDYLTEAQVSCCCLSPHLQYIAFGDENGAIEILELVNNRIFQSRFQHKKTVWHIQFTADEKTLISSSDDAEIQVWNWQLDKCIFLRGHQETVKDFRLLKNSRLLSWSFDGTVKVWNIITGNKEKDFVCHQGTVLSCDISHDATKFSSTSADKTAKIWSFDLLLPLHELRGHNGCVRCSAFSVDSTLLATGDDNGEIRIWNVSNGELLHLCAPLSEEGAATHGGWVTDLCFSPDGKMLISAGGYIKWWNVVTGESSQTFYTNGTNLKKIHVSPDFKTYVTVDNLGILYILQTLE
- Type: functional
Calls of active or inactive are those of the source.
Readout Label: IC50

| Compound | Assay Value |
| --- | --- |
| CCN(CC)CCOC(=O)c1ccc(N/C=C(/C#N)c2nc(-c3cc4ccccc4oc3=O)cs2)cc1 | 4.12 µM (active) |
| COC(=O)CCC(=O)OC1(C)C(=O)C2=CN(C3CCCC3)C(c3ccc(OC)cc3)=CC2=C(Br)C1=O (stereo not given) | 17.4 µM (active) |
| O=C(O)CCNc1cc(N2CCN(C(=O)c3ccco3)CC2)c2noc3c2c1C(=O)c1ccccc1-3 | 21.4 µM (active) |
| Clc1ccc(/N=c2\ssnc2Cl)nc1 | 14.3 µM (active) |
| Nc1ccc(Oc2ncccn2)cc1 | 25.7 µM (active) |

###

A collection of molecules and their measured EC50
- Subject Of Test: Endoribonuclease toxin MazF (Escherichia coli K-12)
- Sequence (P0AE70 whole entry): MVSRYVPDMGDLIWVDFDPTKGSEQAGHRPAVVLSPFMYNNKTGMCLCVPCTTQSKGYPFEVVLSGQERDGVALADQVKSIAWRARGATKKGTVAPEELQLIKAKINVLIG
- Assay Remarks: activation of MazEF endoribonuclease cleavage – biochemical, fluorescence, single-stranded RNA substrate, uHTS hits, dose response (AID 588481)
- Assay type: functional
Activity calls are given as the source filed them.

| Line Notation | EC50 |
| --- | --- |
| COc1cc(OC)c(OC)cc1/C=C(\C#N)C(=O)NCc1cccs1 | > 99 µM (inactive) |
| COc1ccc2nc(SCC(=O)N3CC(=O)Nc4ccccc43)c(C#N)cc2c1 | > 99 µM (inactive) |
| CCN1C(C)=C(C)S/C1=C1\SC(=S)N(C2CCCCC2)C1=O | 29.1 µM (inactive) |
| COc1ccc(-c2cc(C(F)(F)F)c3c(N)c(C(=O)NCCSC)sc3n2)cc1 | > 99 µM (inactive) |
| CCc1ccc[n+](-c2nc3ccccc3nc2[C-](C#N)C#N)c1 | 59.2 µM (inactive) |
